- TEST_TARGET: T1, GHRH receptor in human pituitary membrane homogenates (human, UniProt Q02643)
- T1 sequence: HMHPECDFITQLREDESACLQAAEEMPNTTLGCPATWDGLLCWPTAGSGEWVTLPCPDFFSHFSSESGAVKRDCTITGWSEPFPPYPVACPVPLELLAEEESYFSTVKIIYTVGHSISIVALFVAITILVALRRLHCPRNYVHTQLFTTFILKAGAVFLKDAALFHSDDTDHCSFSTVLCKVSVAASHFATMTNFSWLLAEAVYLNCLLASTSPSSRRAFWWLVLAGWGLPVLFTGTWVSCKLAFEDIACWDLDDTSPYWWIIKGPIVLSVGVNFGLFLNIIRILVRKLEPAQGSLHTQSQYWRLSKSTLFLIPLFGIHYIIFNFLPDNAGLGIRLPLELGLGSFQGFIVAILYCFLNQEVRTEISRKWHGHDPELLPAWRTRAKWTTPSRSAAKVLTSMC
- EXPERIMENT_DESCRIPTION: ligand competition, 125I-JV-1-42 displaced, human pituitary membranes
pIC50: −log10 of the molar value. Non-standard residues stand in square brackets, D forms with d. No end group written: not given here. *: point of attachment. Phe(F5) = N[C@@H](Cc1c(F)c(F)c(F)c(F)c1F)C(=O)O; Desaminotyrosyl = O=C(CCc1ccc(O)cc1)*; NMeY = CN[C@@H](Cc1ccc(O)cc1)C(=O)O; Agmatine = N=C(N)NCCCCN*; Nle = CCCC[C@H](N)C(=O)O; Orn = NCCC[C@H](N)C(=O)O; Abu = CC[C@H](N)C(=O)O; Ava = NCCCCC(=O)O; GABA = NCCCC(=O)O
RESULT_TYPE: pIC50

1) [NMeY][dA]DAI[Phe(F5)]TNSYR[Orn]VL[Abu]QLSAR[Orn]LLQDI[Nle]D[Agmatine] [[N-Me-Tyr1, D-Ala2, Fpa5-6, Orn12, Abu15, Orn21, Nle27, Asp28, Agm29]hGHRH(1-29)]
8.52
2) [NMeY]ADAIFTQSYR[Orn]VL[Abu]QLSAR[Orn]LLQDI[Nle]SR-NHMe (not fully specified) [[N-Me-Tyr1, Gln8, Orn12, Abu15, Orn21, Nle27]hGHRH(1-29)NH-CH3]
8.97
3) [NMeY]ADAIFTQSYR[Orn]VL[Abu]QLSAR[Orn]LLQDI[Nle]DR-NHMe (not fully specified) [[N-Me-Tyr1, Gln8, Orn12, Abu15, Orn21, Nle27, Asp28]hGHRH(1-29)NH-CH3]
9.52

I. [NMeY]ADAIFTQSYR[Orn]VL[Abu]QLSAR[Orn]LLQDI[Nle]SRQ-{GABA-NH2} [[N-Me-Tyr1, Gln8, Orn12, Abu15, Orn21, Nle27, Gln-Gab30]hGHRH(1-30)NH2]
II. [Desaminotyrosyl]ADAIFTQSYR[Orn]VL[Abu]QLSAR[Orn]LLQDI[Nle]DR-NHMe (not fully specified) [[Dat1, Gln8, Orn12, Abu15, Orn21, Nle27, Asp28]hGHRH(1-29)NH-CH3]
Kindly identify which of I and II has the larger recorded pIC50 value. Please reply using the label of the selected record.
I
(I: 8.91, II: 8.52)

I. [NMeY]ADAIFTQSYR[Orn]VL[Abu]QLSAR[Orn]LLQDI[Nle]D[Agmatine] [[N-Me-Tyr1, Gln8, Orn12, Abu15, Orn21, Nle27, Asp28, Agm29]hGHRH(1-29)]
II. [NMeY][dA]DAIFTQSYR[Orn]VL[Abu]QLSAR[Orn]LLQDI[Nle]D[Agmatine] [[N-Me-Tyr1, D-Ala2, Gln8, Orn12, Abu15, Orn21, Nle27, Asp28, Agm29]hGHRH(1-29)]
Name the one with the greater pIC50 value, either I or II as given. Please indicate the selected item by its label.
I
(I: 9.57, II: 9.09)

I. [NMeY]ADAIFTQSYR[Orn]VL[Abu]QLSAR[Orn]LLQDI[Nle]DR[Ava]-NH2 [[N-Me-Tyr1, Gln8, Orn12, Abu15, Orn21, Nle27, Asp28, Apa30]hGHRH(1-30)NH2]
II. [NMeY][dA]DAI[Phe(F5)]TNSYR[Orn]VL[Abu]QLSAR[Orn]LLQDI[Nle]DR-NHMe [[N-Me-Tyr1, D-Ala2, Fpa5-6, Orn12, Abu15, Orn21, Nle27, Asp28]hGHRH(1-29)NH-CH3]
Compare reported pIC50 values for I and II . Which is lower? # reply format: chosen label
I
(I: 8.42, II: 9.06)
